Measured inhibition of SARS-CoV-2 cytopathic effect, listed per entry for reference.
system: Vero E6 infected with SARS-CoV-2; test: inhibition of SARS-CoV-2 cytopathic effect; higher = more antiviral protection, active = above 15; settings: 8.33 nM; 48 h
ASSAY_METRIC: inhibition of SARS-CoV-2 cytopathic effect (%)

{"columns": ["COMPOUND", "ASSAY_VALUE"],
 "data": [
  ["CC1=C(C(=O)O)N2C(=O)[C@@H](NC(=O)[C@H](N)c3ccccc3)[C@H]2SC1", 0.37],
  ["O=[N+]([O-])c1c(Nc2cc(F)cc(Cl)c2)ccc2nonc12", 2.32],
  ["CN(C)c1ccc(-c2nc3c(N4CCN(CC(=O)Nc5nccs5)CC4)c(Cl)cnc3[nH]2)cc1", -0.82],
  ["CCCS(=O)(=O)Nc1ccc(F)c(C(=O)c2c[nH]c3ncc(-c4ccc(Cl)cc4)cc23)c1F", 1.81],
  ["CCOC(=O)[C@H]1O[C@@H]1C(=O)N[C@@H](CC(C)C)C(=O)NCCC(C)C", -1.01],
  ["CCOC1O[C@H]([C@@H](COCc2ccccc2)OCc2ccccc2)[C@H](OCc2ccccc2)[C@H]1O (stereo not given in full) [tribenoside]", -1.54],
  ["O=C1C2CCN(CC2)C1(CO)CO", 1.99],
  ["COc1ccc(NS(=O)(=O)c2ccc(I)cc2)cc1N1CCN(C)CC1", -5.4],
  ["C[N+]1(C)[C@@H]2C[C@@H](OC(=O)C(O)(c3cccs3)c3cccs3)C[C@H]1[C@@H]1O[C@@H]12", -2.54],
  ["Fc1ccc(-n2cc(CCCCN3CCC4(CC3)OCc3ccccc34)c3ccccc32)cc1", 1.88],
  ["COC(=O)[C@@]12OC[C@]34[C@H]([C@@H](O)[C@@H]1O)[C@@]1(C)CC(=O)C(O)=C(C)[C@@H]1C[C@H]3OC(=O)[C@H](OC(=O)/C=C(\\C)C(C)C)[C@@H]24 [bruceantin]", 1.92],
  ["C[C@@H](N)c1ccc(C(=O)Nc2ccnc3[nH]ccc23)cc1", -1.06],
  ["COc1cccc2c1C(=O)c1c(O)c3c(c(O)c1C2=O)C[C@@](O)(C(C)=O)C[C@@H]3O[C@H]1C[C@H](N)[C@H](O)[C@H](C)O1", 0.64],
  ["O=C(c1c2ccccc2cc2ccccc12)N1CCC(N2CCC[C@@H](C(=O)N3CCOCC3)C2)CC1", -0.08],
  ["O=C(Nc1ccc(N2CCC(C(=O)N3CCOCC3)CC2)cc1)c1cnc(Oc2ccccc2)nc1", 1.26]
]}

###

This section presents compounds with their documented inhibition of SARS-CoV-2 cytopathic effect values.
test system: Vero E6 infected with SARS-CoV-2; test: inhibition of SARS-CoV-2 cytopathic effect; higher = more antiviral protection, active = above 15; conditions: 10000 nM; 48 h
ASSAY_METRIC: inhibition of SARS-CoV-2 cytopathic effect (%)

{"columns": ["COMPOUND", "UNITS_TEXT", "ASSAY_VALUE"],
 "data": [
  ["CN[C@@H](C)C(=O)N[C@H](C(=O)N1CCC[C@H]1c1nc(C(=O)c2ccc(F)cc2)cs1)C1CCCCC1", "%", -4.24],
  ["Cc1nc2ccccc2c(-c2ccc3c4c(ccnc24)CCO3)c1[C@H](OC(C)(C)C)C(=O)O", "%", -3.59],
  ["Nc1nc(=O)c2nc(CNc3ccc(C(=O)N[C@@H](CCC(=O)O)C(=O)O)cc3)cnc2[nH]1 [folic-acid]", "%", -0.44],
  ["CC1(COc2ccc3c(c2)ncn3-c2ccc3cccc(N4CCC(N)CC4)c3n2)COC1 [crenolanib]", "%", 0.74],
  ["CCOc1ccc(/C=C2\\NCCc3cc(OCC)c(OCC)cc32)cc1OCC [drotaverine]", "%", 0.78],
  ["C1=N/C2=N/c3ccc(OCCN4CCCC4)c(c3)COC/C=C/COCc3cccc(c3)C(=C1)N2 [pacritinib]", "%", -15],
  ["O=C(O)c1cc(-c2ccc(F)cc2F)ccc1O [diflunisal]", "%", 0.19],
  ["NS(=O)(=O)c1ccc2c(c1)C1C=CCC1C(c1ccc(Br)cc1)N2 (configuration not stated)", "%", -0.61],
  ["CC(C)(Sc1cc(C(C)(C)C)c(O)c(C(C)(C)C)c1)Sc1cc(C(C)(C)C)c(O)c(C(C)(C)C)c1 [probucol]", "%", 1.98],
  ["CO/N=C1\\CN(c2nc3c(cc2F)c(=O)c(C(=O)O)cn3C2CC2)CC1CN (configuration not stated) [gemifloxacin]", "%", 5.76],
  ["O=C(O)C(=O)Nc1cccc(-c2nnn[nH]2)c1 [acitazanolast]", "%", -0.46],
  ["NC(=O)c1cccnc1 [nicotinamide]", "%", 7.29]
]}
